test: acute toxicity, LD50, intravenous, male mice; settings: mouse, in vivo, male mice weighing 20 g
measured.parameter: LD50 (mg/kg)
Note: unit mg/kg is implicit; provide only the numeric part.

Exercise: So what does the record say about LD50 for CC1CNc2c(cccc2S(=O)(=O)N[C@@H](CCCNC(=N)N)C(=O)N2CC[C@@H](C)C[C@@H]2C(=O)O)C1 (stereo partly shown) ?
Key: 211

* * *

tested on: fibrinolysis of plasma by t-PA (tissue plasminogen activator); assay: fibrinolysis of plasma aggregation effected by t-PA; 0.15 ml plasma in 0.7 ml total (Examples 2 and 3); format: biochemical, healthy person (human); conditions: Table 5, 0.3 μM, control 95.7 min
Overview of reported Dissolution Time across a group of molecules:
Please respond with the number in min and leave the unit unwritten.

CCC1CCN(C(=O)[C@H](CCCNC(=N)N)NS(=O)(=O)c2ccc3cc(OC)c(OC)cc3c2)C(C(=O)O)C1 (stereo partly shown) [Compound 3]
53.4
Cc1ccc2ccc(S(=O)(=O)N[C@@H](CCCNC(=N)N)C(=O)N3CCC(C)CC3C(=O)O)cc2c1 (stereo partly shown) [Compound 4]
50.5
COc1ccc2ccc(S(=O)(=O)N[C@@H](CCCNC(=N)N)C(=O)N3CCC(C)CC3C(=O)O)cc2c1 (stereo partly shown) [Compound 2]
36.5

Shift focus to the following entry.
Exercise: State the recorded Dissolution Time for this entry: COCCN(CC(=O)O)C(=O)[C@H](CCCNC(=N)N)NS(=O)(=O)c1ccc2cc(OC)c(OC)cc2c1 [Compound 1]
Key: 55.4
